Assay: Inhibition of recombinant human farnesyltransferase using dansyl-GCVLS as substrate in presence of farnesyl pyrophosphate after 15 mins by fluorescence assay
attribute-measured: IC50 (nM)

>>> reported_result("CC(C)=CCC/C(C)=C/CC/C(C)=C/Cc1cc(O)cc2c1OC(/C=C(\\C)CC/C=C(\\C)CCC=C(C)C)C1=C2C(=O)C2=C(NCCS2(=O)=O)C1=O (stereo not given)")
1500
>>> reported_result("CC(C)=CCC/C(C)=C/CC/C(C)=C/C1Oc2ccc(O)cc2C2=C1C(=O)C=CC2=O (stereo not given)")
1700
>>> reported_result("CC(C)=CCC/C(C)=C/CC/C(C)=C/Cc1cc(O)cc2c1OC(/C=C(\\C)CC/C=C(\\C)CCC=C(C)C)C1=C2C(=O)C2=C(C1=O)S(=O)(=O)CCN2 (stereo not given)")
170
>>> reported_result("CC(C)=CCC/C(C)=C/CC/C(C)=C/Cc1cc2c(cc1O)C1=C(C(=O)C3=C(C1=O)S(=O)(=O)CCN3)C(/C=C(\\C)CC/C=C(\\C)CCC=C(C)C)O2 (stereo not given)")
4700
>>> reported_result("CC(C)=CCC/C(C)=C/Cc1cc(O)cc2c1OC(/C=C(\\C)CCC=C(C)C)C1=C2C(=O)C2=C(NCCS2(=O)=O)C1=O (stereo not given)")
140
>>> reported_result("CC(C)=CCC/C(C)=C/Cc1cc2c(cc1O)C1=C(C(=O)C3=C(C1=O)S(=O)(=O)CCN3)C(/C=C(\\C)CCC=C(C)C)O2 (stereo not given)")
54
>>> reported_result("CC(C)=CCc1cc(O)cc2c1OC(C=C(C)C)C1=C2C(=O)C2=C(NCCS2(=O)=O)C1=O (stereo not given)")
14700
>>> reported_result("CC(C)=CCc1cc2c(cc1O)C1=C(C(=O)C3=C(C1=O)S(=O)(=O)CCN3)C(C=C(C)C)O2 (stereo not given)")
3100
>>> reported_result("CC(C)=CCC/C(C)=C/Cc1cc2c(cc1O)C1=C(C(=O)C3=C(NCCS3(=O)=O)C1=O)C(/C=C(\\C)CCC=C(C)C)O2 (stereo not given)")
1220
>>> reported_result("CC(C)=CCC/C(C)=C/Cc1cc(O)cc2c1OC(/C=C(\\C)CCC=C(C)C)C1=C2C(=O)C2=C(C1=O)S(=O)(=O)CCN2 (stereo not given)")
780

P = CC(C)=CCc1cc(O)cc2c1OC(C=C(C)C)C1=C2C(=O)C2=C(C1=O)S(=O)(=O)CCN2 (stereo not given)
Q = CC(C)=CCC/C(C)=C/CC/C(C)=C/C1Oc2c(cc(O)c3c2-c2cc(O)ccc2OC3/C=C(\C)CC/C=C(\C)CCC=C(C)C)C2=C1C(=O)C=CC2=O (stereo not given)
Pick one: P or Q . Which one has the lower reported IC50? # reply format: chosen label Q
(Q: 1000 nM, P: 17300 nM)

* * *

Assay: Inhibition of Trypanosoma brucei recombinant farnesyltransferase using dansyl peptide containing GCAIM as substrate in presence of farnesyl pyrophosphate after 15 mins by fluorescence assay
pIC50: −log10 of the molar value.
attribute-measured: pIC50

Some solved cases for reference:
>>> reported_result("CC(C)=CCC/C(C)=C/CC/C(C)=C/Cc1cc2c(cc1O)C1=C(C(=O)C3=C(NCCS3(=O)=O)C1=O)C(/C=C(\\C)CC/C=C(\\C)CCC=C(C)C)O2 (stereo unspecified)")
6.00
>>> reported_result("CC(C)=CCC/C(C)=C/Cc1cc2c(cc1O)C1=C(C(=O)C3=C(NCCS3(=O)=O)C1=O)C(/C=C(\\C)CCC=C(C)C)O2 (stereo unspecified)")
5.52
>>> reported_result("CC(C)=CCC/C(C)=C/CC/C(C)=C/C1Oc2ccc(O)cc2C2=C1C(=O)C=CC2=O (stereo unspecified)")
5.48

a = CC(C)=CCc1cc(O)cc2c1OC(C=C(C)C)C1=C2C(=O)C2=C(NCCS2(=O)=O)C1=O (stereo unspecified)
b = CC(C)=CCc1cc2c(cc1O)C1=C(C(=O)C3=C(C1=O)S(=O)(=O)CCN3)C(C=C(C)C)O2 (stereo unspecified)
Pick one: a or b . Which one has the lower reported pIC50? # reply format: chosen label a
(a: 4.71, b: 5.64)

A = CC(C)=CCC/C(C)=C/CC/C(C)=C/C1Oc2c(cc(O)c3c2-c2cc(O)ccc2OC3/C=C(\C)CC/C=C(\C)CCC=C(C)C)C2=C1C(=O)C=CC2=O (stereo unspecified)
B = CC(C)=CCC/C(C)=C/CC/C(C)=C/Cc1cc(O)cc2c1OC(/C=C(\C)CC/C=C(\C)CCC=C(C)C)C1=C2C(=O)C2=C(NCCS2(=O)=O)C1=O (stereo unspecified)
C = CSCC[C@H](NC(=O)c1ccc(NC[C@@H](N)CS)cc1-c1ccccc1)C(=O)O
D = CC(C)=CCC/C(C)=C/CC/C(C)=C/Cc1cc2c(cc1O)C1=C(C(=O)C3=C(C1=O)S(=O)(=O)CCN3)C(/C=C(\C)CC/C=C(\C)CCC=C(C)C)O2 (stereo unspecified)
Sort (4 compounds) by pIC50: min first. Provide the ranking by listing each label in its place in the requested order. D, B, A, C
